The origin of these recorded values is patent US20020198219A1.

# reported % neuroprotection (cell survival relative to control); entries follow
tested on: differentiated P19 neurons; test: Drug screening using differentiated P19 cell assay (neuroprotection against glutamate/glycine); type: cell-based, murine; details: screened at 1 micromolar; percentage of control cells surviving after 24 hours

// known answers, use as guide
SMILES STR	READOUT VALUE
COc1ccc(Nc2cccc(-c3ccc(Cl)cc3)n2)cc1	75%
COc1ccc(Nc2cccc(-c3ccc(N(C)C)cc3)n2)cc1	71%
c1ccc2oc(-c3ccc(Nc4ccc(N5CCOCC5)cc4)nc3)cc2c1	96%
Oc1ccc(-c2ccc(Nc3ccc(N4CCOCC4)cc3)nc2)cc1	84%
CCCCCOc1ccc(Nc2ccc(-c3cccc(N(C)C)c3)cn2)cc1	88%
c1ccc(Oc2ccccc2-c2ccc(Nc3ccc(N4CCOCC4)cc3)nc2)cc1	83%
COc1ccc(Nc2ccc(-c3cccc(OC(F)(F)F)c3)cn2)cc1	74%
CCOc1cccc(-c2ccc(Nc3ccc4c(c3)OCCO4)nc2)c1	76%
CCn1c2ccccc2c2cc(Nc3cccc(-c4cccc(N(C)C)c4)n3)ccc21	89%
COc1ccc(Nc2ccc(-c3ccc(O)cc3)cn2)cc1	94%

IN: I would be grateful if you could share the reported % neuroprotection (cell survival relative to control) for COc1ccccc1-c1ccc(Nc2ccc3c(c2)OCCO3)nc1 .
OUT: 83%

IN: Entry COc1ccc(Nc2cccc(-c3ccc4ccccc4c3)n2)c(C)c1OC : reported % neuroprotection (cell survival relative to control) = ?
OUT: 86%

IN: Endpoint output: % neuroprotection (cell survival relative to control) of COc1ncc(-c2cccc(Nc3cc(OC)c(OC)c(OC)c3)n2)c(OC)n1 . Value?
OUT: 71%

IN: Field request: % neuroprotection (cell survival relative to control) | item: COc1cc(Nc2cccc(-c3ccc4ccccc4c3)n2)cc(OC)c1OC
OUT: 86%

====

test system: differentiated P19 neurons; assay: Drug screening using differentiated P19 cell assay (neuroprotection against glutamate/glycine); type: cell-based, murine; details: screened at 1 micromolar; percentage of control cells surviving after 24 hours
Listed next: entries and their corresponding % neuroprotection (cell survival relative to control).
Just the number please, in %, no unit attached.

IN: Form entry - test system: differentiated P19 neurons; read-out: % neuroprotection (cell survival relative to control); compound: COc1cc(C)c(Nc2cccc(-c3ccc(C)c(C)c3)n2)cc1OC
OUT: 86

IN: Form entry - test system: differentiated P19 neurons; read-out: % neuroprotection (cell survival relative to control); compound: Cc1ccc(-c2ccc(Nc3ccc4c(c3)OCCO4)nc2)cc1C
OUT: 86

IN: Query the reported % neuroprotection (cell survival relative to control) for differentiated P19 neurons; item: CCCCCOc1ccc(Nc2ccc(-c3ccc(O)cc3)cn2)cc1
OUT: 84

IN: Item: CCn1c2ccccc2c2cc(Nc3cccc(-c4ccc(OC)c(OC)c4)n3)ccc21 Test system: differentiated P19 neurons Read-out: % neuroprotection (cell survival relative to control) Value: ?
OUT: 92

IN: Please provide the recorded % neuroprotection (cell survival relative to control) for COc1cc(Nc2cccc(-c3cccc(OC(F)(F)F)c3)n2)cc(OC)c1OC , tested on differentiated P19 neurons.
OUT: 91

IN: Which measured % neuroprotection (cell survival relative to control) belongs to COc1ccc(Nc2cccc(-c3ccccc3)n2)cc1 , tested on differentiated P19 neurons?
OUT: 90

IN: What measured % neuroprotection (cell survival relative to control) is associated with CCOc1cccc(-c2ccc(Nc3cc(OC)c(OC)c(OC)c3)nc2)c1 on differentiated P19 neurons?
OUT: 87

IN: Please state recorded % neuroprotection (cell survival relative to control) (tested on differentiated P19 neurons) of COc1cc(Nc2ccc(-c3ccc(N4CCN(C(=O)OC(C)(C)C)CC4)cc3)cn2)cc(OC)c1OC
OUT: 77

IN: Tell me reported % neuroprotection (cell survival relative to control) for Clc1cccc(-c2ccc(Nc3ccc(N4CCOCC4)cc3)nc2)c1Cl , tested with differentiated P19 neurons.
OUT: 107

====

# % neuroprotection (cell survival relative to control) values compiled below
tested on: differentiated P19 neurons; test: Drug screening using differentiated P19 cell assay (neuroprotection against glutamate/glycine); assay type: cell-based, murine; settings: screened at 1 micromolar; percentage of control cells surviving after 24 hours
Number only, in %; omit the unit.

SMILES STR	READOUT VALUE
COc1ccc(-c2cccc(Nc3cc(OC)c(OC)c(OC)c3)n2)cc1OC	86
FC(F)(F)c1cc(-c2ccc(Nc3ccc(N4CCOCC4)cc3)nc2)cc(C(F)(F)F)c1	95
COc1cc(Nc2cccc(/C=C/c3ccccc3)n2)cc(OC)c1OC	110
COc1cc(Nc2ccc(-c3ccc(C)c(C)c3)cn2)cc(OC)c1OC	85
Clc1ccc(-c2ccc(Nc3ccc(N4CCOCC4)cc3)nc2)cc1	82
CCCCCOc1ccc(Nc2ccc(-c3ccccc3OC)cn2)cc1	90
FC(F)(F)Oc1ccc(-c2ccc(Nc3ccc(N4CCOCC4)cc3)nc2)cc1	74

Now turn to the next compound.
IN: Missing value: % neuroprotection (cell survival relative to control), differentiated P19 neurons, entry CCOc1cccc(-c2cccc(Nc3cc(OC)c(OC)c(OC)c3)n2)c1 . Fill in?
OUT: 96
